assay: self-splicing fitness, log relative to wild type (ln ratio); higher = more splicing; Tetrahymena group I intron in knt gene, E. coli kanamycin selection, DiMSum; sequences stand for … in CUCUCU…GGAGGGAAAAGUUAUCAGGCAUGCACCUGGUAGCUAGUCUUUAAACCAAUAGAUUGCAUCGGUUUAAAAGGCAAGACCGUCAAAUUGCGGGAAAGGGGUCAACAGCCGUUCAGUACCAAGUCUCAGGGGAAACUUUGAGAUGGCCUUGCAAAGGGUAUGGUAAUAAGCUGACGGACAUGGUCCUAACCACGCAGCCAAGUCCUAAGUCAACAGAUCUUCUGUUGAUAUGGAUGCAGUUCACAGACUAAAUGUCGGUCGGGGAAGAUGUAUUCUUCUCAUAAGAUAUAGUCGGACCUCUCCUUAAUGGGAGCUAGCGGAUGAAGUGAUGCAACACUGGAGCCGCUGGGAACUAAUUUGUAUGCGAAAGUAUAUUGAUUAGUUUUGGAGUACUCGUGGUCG; settings: 37 °C;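 note: selection with 25 µg/mL kanamycin versus none on LB agar overnight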
List of self-splicing fitness (ln) values.
When you answer, write just the number.

GUAAAGCAAUAUUACGUGUG	-1
AGAAAGCAAUAUUACGCAAG	-1.32

Entry GCCAAGCAAUAUUACGCCAA : reported self-splicing fitness (ln) = ?
-1.19

Entry UAUGAGCAAUAUUACGCAUA : reported self-splicing fitness (ln) = ?
-2.21

Entry GGUUAGCAAUAUUACGUAUG : reported self-splicing fitness (ln) = ?
-0.52

Entry AUUCAGCAAUAUUACGGACC : reported self-splicing fitness (ln) = ?
0.355

Entry CGCUAGCAAUAUUACGCUUG : reported self-splicing fitness (ln) = ?
-3
